Target: T1, human PVRIG on cells (human, UniProt Q6DKI7 1-326)
T1 construct: whole, on cells; over-expressed on HEK cells or endogenous on Jurkat and CD8 T cells; also called hPVRIG; HEK hPVRIG cells
T1 sequence (looked up): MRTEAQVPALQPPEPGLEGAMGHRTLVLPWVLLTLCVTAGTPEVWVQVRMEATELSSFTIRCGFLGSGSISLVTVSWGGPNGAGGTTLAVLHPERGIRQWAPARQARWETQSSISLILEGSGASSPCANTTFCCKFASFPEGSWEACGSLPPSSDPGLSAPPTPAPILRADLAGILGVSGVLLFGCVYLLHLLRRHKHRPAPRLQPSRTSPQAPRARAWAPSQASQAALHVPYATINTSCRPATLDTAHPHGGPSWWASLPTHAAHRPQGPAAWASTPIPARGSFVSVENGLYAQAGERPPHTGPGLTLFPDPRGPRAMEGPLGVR
Experiment: FACS, human PBMC, CD56 int. NK cells, 10ug/ml
With a cut-off of 4, any gMFIr Human CD56 int. NK strictly below it is called Condition met; any gMFIr Human CD56 int. NK meeting it or above is called Condition not met.

Incoming: Below 4 on gMFIr Human CD56 int. NK? Entry CHA.7.516 (antibody, V domains shown) VH: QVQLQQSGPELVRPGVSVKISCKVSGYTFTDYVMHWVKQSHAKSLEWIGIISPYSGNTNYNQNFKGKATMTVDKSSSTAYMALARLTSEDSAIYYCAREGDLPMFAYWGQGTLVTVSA VL: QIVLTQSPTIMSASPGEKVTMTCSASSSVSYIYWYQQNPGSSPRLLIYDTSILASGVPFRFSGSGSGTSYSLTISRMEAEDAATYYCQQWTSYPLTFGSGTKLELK
Outgoing: Condition not met

Incoming: Below 4 on gMFIr Human CD56 int. NK? Entry CHA.7.514 (antibody, V domains shown) VH: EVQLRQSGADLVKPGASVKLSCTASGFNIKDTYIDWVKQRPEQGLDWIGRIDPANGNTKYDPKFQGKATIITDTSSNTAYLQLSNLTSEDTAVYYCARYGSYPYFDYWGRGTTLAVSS VL: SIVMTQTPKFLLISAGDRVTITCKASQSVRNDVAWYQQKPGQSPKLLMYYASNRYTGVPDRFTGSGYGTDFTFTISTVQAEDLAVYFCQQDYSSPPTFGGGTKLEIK
Outgoing: Condition not met

Incoming: Below 4 on gMFIr Human CD56 int. NK? Entry CHA.7.546 (antibody, V domains shown) VH: QIQLVQSGPELKKPGETVKISCKASGYTFTTYGMSWVKQAPGKGLKWMGWINTYSGVSTYADDFEGRFAFSLETSVSTAYLQINNLKNEDTATYFCARLGRGSTTGAGYLDVWGTGTTVTVSS VL: DIVLTQSPAIMSASPGEKVSMTCSASSSVSSWYLHWYQQKSGASPKLWIYGTSNLASGVPARFSGSGSGTSYSLTISSVEAEDAATYYCQQYHSDPYTFGSGTKLEIK
Outgoing: Condition met

Incoming: Below 4 on gMFIr Human CD56 int. NK? Entry CHA.7.512 (antibody, V domains shown) VH: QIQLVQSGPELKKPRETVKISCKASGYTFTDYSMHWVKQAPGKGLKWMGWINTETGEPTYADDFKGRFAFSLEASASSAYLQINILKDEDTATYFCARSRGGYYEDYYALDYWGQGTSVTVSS VL: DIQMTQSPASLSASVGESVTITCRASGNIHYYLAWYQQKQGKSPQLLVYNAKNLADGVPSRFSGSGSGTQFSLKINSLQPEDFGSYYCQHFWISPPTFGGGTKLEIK
Outgoing: Condition met

Incoming: Below 4 on gMFIr Human CD56 int. NK? Entry CHA.7.508 (antibody, V domains shown) VH: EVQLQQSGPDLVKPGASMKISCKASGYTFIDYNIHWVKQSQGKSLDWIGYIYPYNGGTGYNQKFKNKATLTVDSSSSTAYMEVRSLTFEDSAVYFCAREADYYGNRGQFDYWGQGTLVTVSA VL: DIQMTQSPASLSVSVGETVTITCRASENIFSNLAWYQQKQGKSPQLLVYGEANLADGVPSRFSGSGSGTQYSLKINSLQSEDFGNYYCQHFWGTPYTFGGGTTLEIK
Outgoing: Condition met
